Origin of measurements: patent US20240132622A1

# Target Desc: T1, recombinant human PAD4 (human, UniProt Q9UM07 1-663)
# T1 construct: also called rhPAD4; hPAD4
# T1 sequence (Q9UM07 whole entry): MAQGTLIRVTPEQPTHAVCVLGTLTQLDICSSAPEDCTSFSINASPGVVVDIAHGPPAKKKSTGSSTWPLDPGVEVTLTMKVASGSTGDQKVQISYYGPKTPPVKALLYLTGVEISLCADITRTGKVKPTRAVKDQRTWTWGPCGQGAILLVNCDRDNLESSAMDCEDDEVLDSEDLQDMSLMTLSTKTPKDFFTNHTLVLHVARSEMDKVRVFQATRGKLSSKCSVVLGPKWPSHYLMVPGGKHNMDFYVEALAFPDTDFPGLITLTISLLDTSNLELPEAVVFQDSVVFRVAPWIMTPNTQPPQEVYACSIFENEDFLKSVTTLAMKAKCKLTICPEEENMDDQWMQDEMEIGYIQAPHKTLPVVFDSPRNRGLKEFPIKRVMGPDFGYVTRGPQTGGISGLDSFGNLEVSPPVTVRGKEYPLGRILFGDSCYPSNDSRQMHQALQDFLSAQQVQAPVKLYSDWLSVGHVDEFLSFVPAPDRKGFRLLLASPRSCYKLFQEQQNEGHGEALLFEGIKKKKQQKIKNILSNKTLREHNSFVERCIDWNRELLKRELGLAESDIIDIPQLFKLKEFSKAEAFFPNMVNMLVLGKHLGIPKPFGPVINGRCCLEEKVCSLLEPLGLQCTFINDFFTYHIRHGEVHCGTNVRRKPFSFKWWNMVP
# Experiment Notes: SPR 37 C, captured antibody, PAD4 analyte, 2 mM EDTA
Experimental Readout: Kd (nM)
Respond numerically; units are nM and should not be typed.

The cases that follow already have their Kd on record.
Binder: hz20-6 (antibody, V domains shown, light constant region not tied to this antibody) VH: QVQLVQSGAEVKKPGASVKLSCKATGYTFTNYGISWVRQAPGQGLEWIGEIYPRSGNTYHNEKFKDRVTLTADKSSSTAYMEFRSLRSDDTAVYFCARSMITTRYWYFDVWGQGTLVTVSS VL: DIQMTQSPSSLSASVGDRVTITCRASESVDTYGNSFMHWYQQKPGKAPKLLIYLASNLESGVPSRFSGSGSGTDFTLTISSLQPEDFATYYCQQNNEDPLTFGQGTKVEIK
Reported Result: 1.2
--
Binder: hz20-8 (antibody, V domains shown, light constant region not tied to this antibody) VH: QVQLVQSGAEVKKPGASVKVSCKASGYTFTNYGISWVRQAPGQGLEWMGEIYPRSGNTYHNEKFKDRVTMTTDTSTSTAYMELRSLRSDDTAVYYCARSMITTRYWYFDVWGKGTTVTVSS VL: DIVMTQSPDSLAVSLGERATINCRASESVDTYGNSFMHWYQQKPGQPPKLLIYLASNLESGVPDRFSGSGSGTDFTLTIDSLQAEDVAVYYCQQNNEDPLTFGQGTKLEIK
Reported Result: 0.6

Fill blank: measured Kd of the binder hz13-6 (antibody, V domains shown, light constant region not tied to this antibody) VH: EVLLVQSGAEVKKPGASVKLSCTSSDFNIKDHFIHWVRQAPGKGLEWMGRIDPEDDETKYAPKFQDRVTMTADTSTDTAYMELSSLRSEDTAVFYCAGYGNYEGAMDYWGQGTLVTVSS VL: DIVMTQSPSSLSASVGDRVTLTCRASENVNNYGIGFMNWFQQKPGKAPKLLIYAASRRGSGVPSRFSGSGSGTDFTLTISSMQPEDFATYFCQQSKEVPYTFGQGTKLEIK is ____.
0.1
